Tested on: UO-31 renal
Test: NCI tumour cell line growth inhibition, 48 h
testReadout: TGI

Query: I'd like to know its TGI. The molecule in question is `COc1ccc(-c2nc(-c3ccc(OC)cc3)n(-c3ccccc3)n2)cc1`
Result: > 100 µM

Query: I'd like to know its TGI. The molecule in question is `Cc1cc2c(cc1Cl)SC(N(c1ccccc1Cl)S(=O)(=O)c1ccc(Br)s1)=NS2(=O)=O`
Result: 62 µM

Query: I'd like to know its TGI. The molecule in question is `O=C(Nc1ccccc1[N+](=O)[O-])/C(=N/Nc1cccc(Cl)c1)c1c(O)c2ccccc2oc1=O`
Result: > 100 µM

Query: I'd like to know its TGI. The molecule in question is `CC1(C)OB(c2ccc(N(CCOS(C)(=O)=O)CCOS(C)(=O)=O)cc2)OC1(C)C`
Result: > 64.6 µM

Query: I'd like to know its TGI. The molecule in question is `COc1ccc2c(c1)CC[C@@H]1[C@@H]2CC[C@]2(C)/C(=N/OCCN3CCCC3)CC[C@@H]12`
Result: 7.54 µM

---
Query: I'd like to know its TGI. The molecule in question is Cc1nc2ccccn2c1NC(=O)NN1C(=O)CSC1c1ccc(Cl)cc1 (centres undefined)
Result: > 100 µM

Query: I'd like to know its TGI. The molecule in question is CN1C(=O)c2ccccc2C(O)(c2ccccc2)C1(O)c1ccccc1 (centres undefined)
Result: > 100 µM

Query: I'd like to know its TGI. The molecule in question is `CN1CCN(CCCOc2cccc3nc(Nc4cc(Cl)cc(Cl)c4)ccc23)CC1`
Result: 2.95 µM

Query: I'd like to know its TGI. The molecule in question is `COc1ccc2[nH]c3cc4c(=O)c5cc(OC)ccc5[nH]c4cc3c(=O)c2c1`
Result: > 100 µM
